Reported relative affinity by item:
Molecular target: T1, HLA-DR1 (HLA-DRB1*01:01) (human)
T1 construct: mature; class II HLA molecule purified from homozygous EBV-transformed lymphoblastoid cells with antibody L243
Assay: competition ELISA vs biotin-HA 306-318;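 also: HLA and competitor incubated 24 to 72 h, maximal signal taken from wells lacking competitor, background from wells lacking HLA molecule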
No end group written: not given here.
// print number alone

Problem: Return relative affinity for the following binder: VDVEQHTLAKYLMEL-NH2 [CCNB1 315-329]
Solution: 2450

Problem: Read the entry AKINMAGAKRVPTAP-NH2 [CCNB1 17-31] and write its reported relative affinity.
Solution: 5

Continuing:
Problem: Identify measured relative affinity corresponding to EPILVDTASPSPMET-NH2 [CCNB1 118-132]
Solution: 6360

Problem: Given the binder HTLAKYLMELTMLDY-NH2 [CCNB1 320-334] , write its reported relative affinity.
Solution: 16
